Tested on: ATP;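 also: ATP exposure 15 min at 22 °C before imaging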
Assay: switch fluorescence ratio, 500 uM ATP over buffer (Cy3 cluster intensity, sum of 5 cycles each) (fold (ratio)); higher = stronger signal-on switching upon ATP binding; sequences stand for … in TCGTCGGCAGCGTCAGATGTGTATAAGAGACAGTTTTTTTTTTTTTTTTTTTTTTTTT…TC
Settings: aptamer strand: ATP DNA aptamer (quencher-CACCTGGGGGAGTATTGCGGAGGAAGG + anchor), 100 nM annealed; ATP concentration: 500 uM
MEASUREMENT TYPE: switch fluorescence ratio
Answers are plain numbers.

Consider the worked cases shown below.
MACROMOLECULE SEQUENCE	MEASUREMENT TYPE	EXPERIMENTAL RESULT
AATGCCTCTT	switch fluorescence ratio	1.01
TTAGGGGCGT	switch fluorescence ratio	0.989
TTCTGGTGCA	switch fluorescence ratio	1.02
TTTGCATGAT	switch fluorescence ratio	0.982
TCAAAGCGGA	switch fluorescence ratio	1.01

Each of the following entries comes with a recorded value; kindly state switch fluorescence ratio for each.
1. TTTCCGGATT
2. CTTGTCAAGT
3. GAGGGGGTAG
4. TCGGGTTGGT
5. TTTGGGAGGA
6. ATTTTAAAGG
7. TTTTTAGTTT
8. AGGAAACTTA

[1.02, 0.984, 0.997, 1.02, 1.02, 0.977, 0.987, 0.988]

Each of the following entries comes with a recorded value; kindly state switch fluorescence ratio for each.
1. TGGTGACTTA
2. AACTAGATCG
3. GCGGTGACCG

[0.974, 1.02, 0.998]

Each of the following entries comes with a recorded value; kindly state switch fluorescence ratio for each.
1. GGACAGTGTA
2. GTTAGGTAGG

1. 1.01
2. 0.982

For the sequence AGCGTTTTCA , report switch fluorescence ratio.
0.994

* * *

Assign switch fluorescence ratio to each entry below.
System: ATP;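 also: ATP exposure 15 min at 22 °C before imaging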
Experiment: switch fluorescence ratio, 500 uM ATP over buffer (Cy3 cluster intensity, sum of 5 cycles each) (fold (ratio)); higher = stronger signal-on switching upon ATP binding; sequences stand for … in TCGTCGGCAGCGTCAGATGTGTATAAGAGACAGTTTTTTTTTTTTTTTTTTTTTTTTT…TC
Conditions: aptamer strand: ATP DNA aptamer (quencher-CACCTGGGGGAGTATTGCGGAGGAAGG + anchor), 100 nM annealed; ATP concentration: 500 uM
Give bare numbers.

Consider the worked cases shown below.
MACROMOLECULE SEQUENCE	EXPERIMENTAL RESULT
TCGGGGCGGC	1.02
TACCACTGCG	1.04
TTGAGGTTCG	1.05
TACGTTTTAA	0.994
AGTTATACGG	0.995
TTCGGGTAAT	1.08

Each of the following entries comes with a recorded value; kindly state switch fluorescence ratio for each.
1. TAATTGGAGG
2. AAGTTGTGTT
3. TTAAATACGT

1: 0.98; 2: 0.996; 3: 1.06

* * *

System: ATP;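 also: ATP exposure 15 min at 22 °C before imaging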
Experiment: switch fluorescence ratio, 500 uM ATP over buffer (Cy3 cluster intensity, sum of 5 cycles each) (fold (ratio)); higher = stronger signal-on switching upon ATP binding; sequences stand for … in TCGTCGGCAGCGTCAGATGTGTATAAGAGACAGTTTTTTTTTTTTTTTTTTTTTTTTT…TC
Conditions: aptamer strand: ATP DNA aptamer (quencher-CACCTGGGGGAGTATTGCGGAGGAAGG + anchor), 100 nM annealed; ATP concentration: 500 uM
Assign switch fluorescence ratio to each entry below.
Answers are plain numbers.

Consider the worked cases shown below.
MACROMOLECULE SEQUENCE	switch fluorescence ratio
TCTTGGGTTG	0.986
TGCGAGTATC	1.02
AGAAGGGCTT	1
GAGGTTGTTA	0.993
GGTTGACATA	1.01

Each of the following entries comes with a recorded value; kindly state switch fluorescence ratio for each.
1. GGGCAGGCAC
2. TTTTTCCAAG
3. ATATAAAGGA
4. ATTGATGTA
5. GGGAATTTAA

1: 0.993; 2: 1.02; 3: 1.01; 4: 1.01; 5: 1.02
